As shown below, each of these compounds has a reported CC50 value.
Experiment: MT4 cytotoxicity (CC50)
Details: human, MT4 cells, MT4 CC50, Table 2a
Respond numerically; units are nM and should not be typed.

Take a look at these entries with their results.
> print(dat)
                              smiles.record  measured.value
1  CCCCCCCCCCCCCCCCOC[C@H](COP(=O)(O)OC[C@H]1O[C@@](C#N)(c2ccc3c(N)ncnn23)[C@H](O)[C@@H]1O)OCCCCCCCCCCCCCCCC           50000
2  CCCCCCCCCCCCCCCCOC[C@H](COP(=O)(O)OC[C@H]1O[C@@](C#N)(c2ccc3c(N)ncnn23)[C@H](O)[C@@H]1O)OCc1cc(F)cc(C#N)c1             404

Now look at this entry.
Exam item: Query: CC50; subject: "CCCCCCCCCCCCCCCCCCOC[C@H](COP(=O)(O)OC[C@H]1O[C@@](C#N)(c2ccc3c(N)ncnn23)[C@H](O)[C@@H]1O)OCc1ccc(C#N)c(F)c1"
Marked response: 744
